test system: human gammaherpesvirus 4; test: Binding affinity to EBNA1 G4-quadruplex in human H1299 cells assessed as EB virus EBNA1 deleted GAr expression at 10 uM incubated for 40 hrs by western blot analysis; assay type: cell-based
Activity calls are given as the source filed them. The rule behind the calls is not given here.
Classes to choose from: YES (active), NO (inactive)

## Input What classification did `O=C(N/N=C/c1ccc2c(ccc[n+]2Cc2ccccc2)c1)c1ccc2ccc(C(=O)N/N=C/c3ccc4c(ccc[n+]4Cc4ccccc4)c3)nc2n1.[Br-].[Br-]` end up with in this test?
## Output NO

## Input What classification did `O=C(N/N=C/c1cc[n+](Cc2ccccc2)c2ccccc12)c1ccc2ccc3ccc(C(=O)N/N=C/c4cc[n+](Cc5ccccc5)c5ccccc45)nc3c2n1.[Br-].[Br-]` end up with in this test?
## Output NO

## Input What classification did `O=C(N/N=C/c1cc[n+](Cc2ccccc2)c2ccccc12)c1cccc(C(=O)N/N=C/c2cc[n+](Cc3ccccc3)c3ccccc23)n1.[Br-].[Br-]` end up with in this test?
## Output YES

###

tested on: NCI-H1299; experiment: Effect on OVA expression in human H1299 cells at 10 uM incubated for 40 hrs by western blot analysis; type: functional; set-up: unit not given here
Exercise: for every item that follows, state its recorded Activity.

Short answer for `O=C(N/N=C/c1ccc2c(ccc[n+]2Cc2ccccc2)c1)c1ccc2ccc(C(=O)N/N=C/c3ccc4c(ccc[n+]4Cc4ccccc4)c3)nc2n1.[Br-].[Br-]` : Activity was 108

Short answer for `C[n+]1ccc(/C=N/NC(=O)c2cc(C(=O)N/N=C/c3cc[n+](C)c4ccccc34)ncn2)c2ccccc21.[I-].[I-]` : Activity was 103

Short answer for `C[n+]1ccc(/C=N/NC(=O)c2ccc3ccc4ccc(C(=O)N/N=C/c5cc[n+](C)cc5)nc4c3n2)cc1.[I-].[I-]` : Activity was 76

Short answer for `C[n+]1ccc(/C=N/NC(=O)c2ccc3ccc4ccc(C(=O)N/N=C/c5cc[n+](C)c6ccccc56)nc4c3n2)c2ccccc21.[I-].[I-]` : Activity was 96

Short answer for `O=C(N/N=C/c1cc[n+](Cc2ccccc2)c2ccccc12)c1ccc2ccc(C(=O)N/N=C/c3cc[n+](Cc4ccccc4)c4ccccc34)nc2n1.[Br-].[Br-]` : Activity was 93

Short answer for `O=C(N/N=C/c1cc[n+](Cc2ccccc2)c2ccccc12)c1cc(C(=O)N/N=C/c2cc[n+](Cc3ccccc3)c3ccccc23)ncn1.[Br-].[Br-]` : Activity was 106

###

tested on: NCI-H1299; assay: Effect on OVA expression in human H1299 cells at 10 uM incubated for 40 hrs by western blot analysis; format: functional; set-up: unit not given here
Exercise: for every item that follows, state its recorded Activity.
Lab note: jot the number down without any unit.

Short answer for `C[n+]1ccc(/C=N/NC(=O)c2cccc(C(=O)N/N=C/c3cc[n+](C)cc3)n2)cc1.[I-].[I-]` : Activity was 93

Short answer for `C[n+]1ccc(/C=N/NC(=O)c2ccc3ccc(C(=O)N/N=C/c4cc[n+](C)c5ccccc45)nc3n2)c2ccccc21.[I-].[I-]` : Activity was 100

Short answer for `O=C(N/N=C/c1cc[n+](Cc2ccccc2)c2ccccc12)c1cccc(C(=O)N/N=C/c2cc[n+](Cc3ccccc3)c3ccccc23)n1.[Br-].[Br-]` : Activity was 149

###

tested on: human gammaherpesvirus 4; assay: Binding affinity to EBNA1 G4-quadruplex in human H1299 cells assessed as EB virus EBNA1 expression at 10 uM incubated for 40 hrs by western blot analysis; assay type: cell-based
The source made the active and inactive calls. The rule behind the calls is not given here.
property_label: Activity

Here's what some known entries look like.
CC[n+]1cccc2cc(/C=N/NC(=O)c3ccc4ccc(C(=O)N/N=C/c5ccc6c(ccc[n+]6CC)c5)nc4n3)ccc21.[I-].[I-]	inactive
C[n+]1ccc(/C=N/NC(=O)c2ccc3ccc(C(=O)N/N=C/c4cc[n+](C)cc4)nc3n2)cc1.[I-].[I-]	inactive
CC[n+]1cccc2cc(/C=N/NC(=O)c3cccc(C(=O)N/N=C/c4ccc5c(ccc[n+]5CC)c4)n3)ccc21.[I-].[I-]	inactive
O=C(N/N=C/c1ccc2c(ccc[n+]2Cc2ccccc2)c1)c1ccc2ccc(C(=O)N/N=C/c3ccc4c(ccc[n+]4Cc4ccccc4)c3)nc2n1.[Br-].[Br-]	inactive
C[n+]1ccc(/C=N/NC(=O)c2ccc3ccc4ccc(C(=O)N/N=C/c5cc[n+](C)c6ccccc56)nc4c3n2)c2ccccc21.[I-].[I-]	Active
O=C(N/N=C/c1ccc2c(ccc[n+]2Cc2ccccc2)c1)c1cccc(C(=O)N/N=C/c2ccc3c(ccc[n+]3Cc3ccccc3)c2)n1.[Br-].[Br-]	Active

Short answer for `C[n+]1ccc(/C=N/NC(=O)c2cc(C(=O)N/N=C/c3cc[n+](C)c4ccccc34)ncn2)c2ccccc21.[I-].[I-]` : Activity was inactive

Source of measurements: ChEMBL document CHEMBL4364242
